System: SK-MEL-5 melanoma
Assay: NCI-60 one-dose screen, 48 h (100 = growth as untreated, 0 = no growth, -100 = all killed)
Conditions: 10 µM unless noted
Compounds without any hit were thinned out: in the full panel of roughly 83,000, 20% have a hit. Activity calls are given as the source filed them. The calls were made as follows: active = growth percent below 10; inactive = the rest.
reported_metric: growth

-- ask Which growth reading was recorded for the compound CC(=O)C1=C(C)NC(NNc2ccccc2)=NC1c1ccc([N+](=O)[O-])cc1 (stereo unspecified) ?
-- reply 98.7% (inactive)

-- ask # growth lookup, item Cc1ccc2c(n1)C(=O)C(Cl)=C(Nc1ccc(C(F)(F)F)cc1)C2=O
-- reply 95.3% (inactive)

-- ask Returns the measured growth for the input compound. Input: COc1ccc(/C=N\NC(=O)c2cnn(CC(O)c3ccccc3)c2N)cc1OCc1ccc(Cl)cc1 (stereo unspecified)
-- reply 92.2% (inactive)

-- ask Entry under review: NC(=O)c1ncn2c(=O)n(CCF)nnc12 . Reported growth?
-- reply 92.5% (inactive)

-- ask Would you kindly share the measured growth for C#Cc1nc(/C=C/CCCCCCC(=O)NO)cs1 ?
-- reply 63.2% (inactive)

-- ask For the compound Cc1nc(N)sc1-c1csc(Nc2ccc(C(F)(F)F)cc2)n1 , what growth is on record?
-- reply -43% (active)

-- ask Request the reported growth associated with CCOc1cccc(/C(N)=N/C(N)=N/c2nc3ccccc3s2)c1
-- reply 92.2% (inactive)

-- ask Look up growth for this compound: CCOC(=O)c1ccccc1NC1=C(Cl)C(=O)c2nc(C)ccc2C1=O
-- reply 99.9% (inactive)

-- ask Which measured growth value corresponds to Brc1cc(-c2cc(-c3ccc4c(c3)OC=CO4)[nH]n2)cs1 ?
-- reply 87.5% (inactive)

-- ask Look up growth: O=C(CSc1nnc(-c2cccs2)n1-c1ccccc1)Nc1ccccc1F
-- reply 91.2% (inactive)

-- ask Looking for the measured growth of Cc1[nH]c(C(=O)Nc2ccc(C(N)=O)cc2N2CCOC(C)C2)c(Cl)c1Cl (stereo unspecified) , can you help?
-- reply 97.2% (inactive)
